The reported measurements were obtained from ChEMBL document CHEMBL4513216.

Each entry below lists one item and its recorded cytotoxicity at 10 µM value.
- assay-text: Toxicity liver stage against HepG2, at 10uM
- Format: cell-based
- Design: test concentration 10 uM, cell line HepG2-A16-CD81EGFP
- assay-setup: human, HepG2-A16-CD81EGFP cells; read-out: INHIBITION

compound: COCCN1C[C@@H]2CC[C@H]1CN(Cc1ccc3ccccc3n1)C2
cytotoxicity at 10 µM, %: -11.3
//
compound: CCn1nc(C)c(C(=O)N2C[C@@H](CN(C)CCOC)[C@@H](CO)C2)c1C
cytotoxicity at 10 µM, %: 1.35
//
compound: c1cc(NC2CC3(CCN(Cc4cscn4)C3)C2)ncn1 (centres undefined)
cytotoxicity at 10 µM, %: -2.28
//
compound: OCCN(Cc1cccnc1)c1cnc2ccccc2n1
cytotoxicity at 10 µM, %: 1.06
//
compound: Cn1cc(C(=O)NCCc2ccc(OC3CCCC3)cc2)ccc1=O
cytotoxicity at 10 µM, %: -2.51
//
compound: O=C(c1c(O)cnc2ccccc12)N1CCCSCC1
cytotoxicity at 10 µM, %: -9.7
//
compound: COc1ccc(-c2n[nH]c(C)c2CC(=O)NCC2CCOCC2)cc1
cytotoxicity at 10 µM, %: -4.28
//
compound: COc1ccccc1CN(Cc1nc(Cc2ccccc2)no1)C1CC1
cytotoxicity at 10 µM, %: 9.54
//
compound: CC(C)(C)OC(=O)NCCC(=O)N(CCC#N)Cc1ccco1
cytotoxicity at 10 µM, %: 3.12
//
compound: CCOc1ccc(N(CCC#N)C(=O)c2ccnc(SC)c2)cc1
cytotoxicity at 10 µM, %: -2.6
//
compound: CC(C)C(=O)NCCCn1ncc2c(Cl)cccc21
cytotoxicity at 10 µM, %: -21.6
//
compound: CC(=O)N1CC[C@H]2OCC[C@@]2(C(=O)NCc2ccco2)C1
cytotoxicity at 10 µM, %: 0.253
//
compound: O=C(NCCNc1ncccn1)N(Cc1ccc(F)cc1F)C1CC1
cytotoxicity at 10 µM, %: -2.84
//
compound: Cc1ccc(NC(=O)CS(=O)(=O)NC2CCC(C)CC2)nc1 (centres undefined)
cytotoxicity at 10 µM, %: -9.24

###

- assay-text: Toxicity liver stage against HepG2, at 10uM
- Type: cell-based
- Design: test concentration 10 uM, cell line HepG2-A16-CD81EGFP
- assay-setup: human, HepG2-A16-CD81EGFP cells; read-out: INHIBITION
Each entry below lists one item and its recorded cytotoxicity at 10 µM value.

molecule: CC(NC(=O)COc1ccc(Cl)cc1Cl)c1nncn1C(C)C (stereo not given)
cytotoxicity at 10 µM / %: 1.67
--
molecule: COCCNC(=O)[C@H]1CC[C@@H]2[C@@H](CCN2S(C)(=O)=O)O1
cytotoxicity at 10 µM / %: -8.87
--
molecule: Cc1cccc(C2CCCCCN2C(=O)c2cn(CC(N)=O)nn2)c1 (stereo not given)
cytotoxicity at 10 µM / %: 1.51
--
molecule: Cc1cc(-n2c(C)cn(CN(C)Cc3ccccc3)c2=O)no1
cytotoxicity at 10 µM / %: 10.3
--
molecule: CC(C)(C)C(=O)N1C[C@@H](F)[C@@H](OCc2nc3ncccc3[nH]2)C1
cytotoxicity at 10 µM / %: 2.97
--
molecule: CN(C)C(=O)c1cccc(NC(=O)N2CCCC(C(F)(F)F)C2)c1 (stereo not given)
cytotoxicity at 10 µM / %: 6.37
--
molecule: CCCc1noc(C[S+]([O-])CC(=O)NCc2ccccc2)n1 (stereo not given)
cytotoxicity at 10 µM / %: -4.3
--
molecule: Cc1nc(CCNc2ccc(-c3nc(C)c(C)c(=O)[nH]3)cn2)cs1
cytotoxicity at 10 µM / %: 2.07
--
molecule: O=C(CC1CCN(CCc2ccccc2)CC1)NC1CCOCC1
cytotoxicity at 10 µM / %: 3.31
--
molecule: COCCNC(=O)CCNc1ccc(Cl)cn1
cytotoxicity at 10 µM / %: -5.22
--
molecule: CCC(CO)N(Cc1cccnc1)C(=O)c1ccc(C)[nH]c1=O (stereo not given)
cytotoxicity at 10 µM / %: -3.95
--
molecule: CC1CCc2nn(CCNC(=O)Cc3cccs3)c(=O)cc2C1 (stereo not given)
cytotoxicity at 10 µM / %: 6.83
--
molecule: O=C(c1cscn1)N1CCC2(CN(Cc3ccncc3)C2)C1
cytotoxicity at 10 µM / %: 6.82
--
molecule: CN(C)CCN(Cc1cccnc1)C(=O)c1ccn(-c2ccccc2)n1
cytotoxicity at 10 µM / %: 2.41
--
molecule: CCC(N)c1ccccc1OCC(=O)N1CCCC1 (stereo not given)
cytotoxicity at 10 µM / %: -5.16

###

- assay-text: Toxicity liver stage against HepG2, at 10uM
- Assay type: cell-based
- Set-up: test concentration 10 uM, cell line HepG2-A16-CD81EGFP
- assay-setup: human, HepG2-A16-CD81EGFP cells; read-out: INHIBITION
Each entry below lists one item and its recorded cytotoxicity at 10 µM value.

compound: C[C@@H]1CN(C(=O)Nc2cccc(OC(F)F)c2)CC(C(N)=O)O1 (some centres undefined)
cytotoxicity at 10 µM / %: 5.52
--
compound: CC1CCCN(c2ncc(C(=O)NCc3ccc(F)c(Cl)c3)c(N)n2)C1 (centres undefined)
cytotoxicity at 10 µM / %: -2.83
--
compound: CCn1ccc(CN(C)C(=O)CSc2nnc(N)s2)n1
cytotoxicity at 10 µM / %: 3.45
--
compound: Cc1cc(Oc2ccccc2F)nc(C2CCCCN2)n1 (centres undefined)
cytotoxicity at 10 µM / %: 8.44
--
compound: Cc1cc(C(=O)NCc2ccnc(N(C)C)c2)c(C)o1
cytotoxicity at 10 µM / %: -2.43
--
compound: CCN(CCn1cccn1)Cc1nc(-c2cccc(C)c2)oc1C
cytotoxicity at 10 µM / %: 0.0489
--
compound: COc1ccc(Oc2ncccc2F)cc1CN1CCCC1
cytotoxicity at 10 µM / %: 2.09
--
compound: O=C(NCc1ccccc1)NCC(O)c1cccc(F)c1 (centres undefined)
cytotoxicity at 10 µM / %: -5.09
--
compound: CCc1cnc(N2CCC3(CC(=O)N(Cc4csc(C)n4)C3)C2)nc1 (centres undefined)
cytotoxicity at 10 µM / %: -2.71
--
compound: Cc1ccc(C(=O)N2CCn3c(COCC4CC4)cnc3C2C)s1 (centres undefined)
cytotoxicity at 10 µM / %: 5.14
--
compound: CC(C)=CCN1CCN(Cc2cc(C)c(O)c(C)c2)CC1CCO (centres undefined)
cytotoxicity at 10 µM / %: -7.44
--
compound: Cc1occc1C(=O)N1CCCC2(CCN(CCN3CCCC3)C2=O)C1 (centres undefined)
cytotoxicity at 10 µM / %: -9.18
--
compound: Cc1ccccc1C1(CNC(=O)CCN2C(=O)CCC2=O)CC1
cytotoxicity at 10 µM / %: -11.8
--
compound: CN(C)c1nc(CNC(=O)N[C@H](CO)c2ccccc2)cs1
cytotoxicity at 10 µM / %: 11.7
--
compound: Cc1ccc(Cl)cc1NC(=O)Cn1cc(C(=O)O)ccc1=O
cytotoxicity at 10 µM / %: -1.45
--
compound: Cc1ccc([C@@H]2CN(C(=O)c3cc(C)no3)C[C@H]2NC(=O)C2CC2)cc1
cytotoxicity at 10 µM / %: -1.82
--
compound: O=C(c1ccsc1)N1CCO[C@@H]2CN(Cc3nccs3)C[C@@H]2C1
cytotoxicity at 10 µM / %: -108
--
compound: Cc1ncsc1C(=O)N1CCC(c2ccc3c(NC(C)C)n[nH]c3n2)C1 (centres undefined)
cytotoxicity at 10 µM / %: 4.42
--
compound: O=C(NC1CCCN(c2ccc(OC(F)F)cc2)C1)c1c[nH]nn1 (centres undefined)
cytotoxicity at 10 µM / %: 24.8
--
compound: Cc1cc(CN2CCN(C(=O)NCc3nc(C)cs3)CC2)on1
cytotoxicity at 10 µM / %: -5.01
--
compound: CSCC(C)(O)CNC(=O)c1cccc(Cl)c1Cl (centres undefined)
cytotoxicity at 10 µM / %: 0.126
--
compound: CCN(Cc1noc(C2CC2)n1)Cc1ccc(C#N)cc1F
cytotoxicity at 10 µM / %: -1.74
--
compound: CCOc1ccc(Cl)c(C(=O)N2CCN(C(=O)c3ccoc3C)CC2)n1
cytotoxicity at 10 µM / %: -6.69
--
compound: COc1ccccc1[C@@H]1CN(C(=O)Cc2csc(C)n2)C[C@H]1C(=O)O
cytotoxicity at 10 µM / %: -8.25
--
compound: COc1ccc(C2Nc3cc(Cl)ccc3C3=NCCN32)cc1CO (centres undefined)
cytotoxicity at 10 µM / %: -19.3
--
compound: CCCc1nc2c(c(C)c(C)n2Cc2cccnc2)c(N)c1CC
cytotoxicity at 10 µM / %: 15
--
compound: COc1ccc(F)cc1C(=O)C1CCCN(Cc2ccc(C)s2)C1 (centres undefined)
cytotoxicity at 10 µM / %: -1.84
--
compound: CC(C)C(=O)N1CCC2(CC1)COCCN2Cc1ccc(F)cc1
cytotoxicity at 10 µM / %: -60.9
--
compound: COc1ccccc1Oc1ncccc1CNC(=O)[C@H](C)O
cytotoxicity at 10 µM / %: -2.64
--
compound: O=C1COC2(CCN(c3ccccn3)CC2)CN1
cytotoxicity at 10 µM / %: 9.52
--
compound: COc1ccccc1CC(NC(=O)N1CCC[C@@H]1CO)C(C)C (some centres undefined)
cytotoxicity at 10 µM / %: 3.34
--
compound: Cc1ccc(O)c(C(=O)N2CCC3(CCCNC3)C2)c1 (centres undefined)
cytotoxicity at 10 µM / %: -10.2
--
compound: COCCCS(=O)(=O)N1CCN(c2cccc(O)c2)CC1
cytotoxicity at 10 µM / %: 4.42
--
compound: O=C(O)c1cc(S(=O)(=O)Nc2cccc(F)c2F)cc2c1OCCO2
cytotoxicity at 10 µM / %: -3.65
